test system: HIV-1 infection of TZM-bl cells; assay: HIV-1 infectivity enhancement assay, β-galactosidase luminescence; type: cell-based; conditions: 1.3 µM peptide; log10 of infection relative to EF-C

# Substance, Log10 Infection Rel EFC
measured = [
    ("RGDKIKIQIC", "-0,08"),
    ("EFEFQF", "-2,49"),
    ("CEFEFQFNMWQ", "-0,85"),
    ("CKIKIQIII", "-0,01"),
    ("QCKFKFQF", "-0,12"),
    ("FKFDKFKFDK", "-1,33"),
    ("CRFRVPF", "-1,7"),
    ("KLKLQLL", "-2,16"),
    ("KLKLKLQL", "-1,01"),
    ("RGDSGGGGGGKIKIQIC", "-0,06"),
    ("CEIEIQINM", "-1,19"),
    ("CEIEIQI", "-1,55"),
    ("KIKIQINMWA", "-0,16"),
    ("HRRHFRHKITKKK", "-1,87"),
    ("RGDKIKIQINMWQ", "-0,12"),
    ("QCKFKQFFNMWQ", "-2,18"),
    ("KIKIKIKIYYYY", "0,14"),
    ("KWKWQW", "-1,84"),
    ("CKYKYQY", "-1,39"),
    ("CSISIQINM", "-0,7"),
    ("CKFKFQFNMW", "-0,02"),
    ("HLHLPLL", -2),
    ("CKIKIQINM", "0,2"),
    ("CKFKFQFNMWQ", "0,06"),
    ("MDQMDQMDQMDQMDQ", "-2,37"),
    ("HHHHKIKIQINMYYYY", "0,04"),
    ("KIKIQINMWQRGD", "-1,92"),
    ("QCKIKQII", "-2,19"),
    ("CKAKAQA", "-1,5"),
    ("TKTLTKTL", "-1,67"),
    ("CEIEIQINMWQ", "-0,66"),
    ("KIKIKIKIWWWW", "-0,23"),
    ("QCKIKIQI", "-0,95"),
    ("HIHIQIC", "-0,57"),
    ("CEFEFQF", "-2,28"),
    ("HHHHKIKIKIKIWWWW", "-0,42"),
    ("QCKIKQIINMWQ [reference compound]", 0),
    ("KIKIQII", "-1,73"),
    ("RGEKIKIQINM", "-0,61"),
    ("KFKFEFEF", "-1,55"),
    ("CKIKQII", "-1,38"),
    ("SISISRRI", "-1,55"),
    ("HHHHKAKAKAKAWWWW", "-1,05"),
    ("RGDCKFKFQF", "-0,82"),
    ("KVKVKVQV", "-1,76"),
    ("HHHHKIKIKIKIYYYY", "-0,17"),
    ("EIKIQINM", -1),
    ("KFKFQF", "-1,21"),
    ("RGDKIRGDKI", "-2,13"),
    ("HHHHEIEIEIEI", "-1,53"),
    ("KFKFQFNMW", "-0,35"),
    ("KIKQIINMWQ", "-0,46"),
    ("KAKAQANM", "-2,05"),
    ("KVKGVGK", "-1,59"),
]
